Measured values drawn from PubChem BioAssay AID2060510 for this set.

test system: 439559-082-T-J2-PDC spheroids viability; assay: Anticancer human tumor 439559-082-T-J2-PDC patient-derived colon adenocarcinoma cell line growth inhibition [GQUAD]; conditions: second compound 0.316 µM; first compound 0.316 µM; hits give low values
So basically: is viability, T/C under 70%? Then True. Not under? Then False.

compound	target.or.system	class.assignment
Cc1cccc(N(C)C(=O)C2C(O)CCN2c2nc(C)cc(C(F)(F)F)c2C#N)c1 (stereo not given) + Cc1[nH]c2ccc(F)cc2c1-c1nc2c3cccnc3c3ncccc3c2[nH]1	439559-082-T-J2-PDC spheroids viability	False
Cn1ncnc1[C@H]1c2n[nH]c(=O)c3cc(F)cc(c23)N[C@@H]1c1ccc(F)cc1 + Cc1cnc(CNC(=O)c2c(=O)c3ccc(N4CCCN(C)CC4)nc3n3c2sc2ccccc23)cn1	439559-082-T-J2-PDC spheroids viability	False
CC1COCCN1c1cc(C2(O)CC3CCC(C2)O3)c2cnn(-c3ccn[nH]3)c2n1 (stereo not given) + CN(C)c1ccc(Nc2c3ccc(NC(=O)CCN4CCCC4)cc3nc3cc(NC(=O)CCN4CCCC4)ccc23)cc1	439559-082-T-J2-PDC spheroids viability	True
CC1COCCN1c1cc(C2(S(C)(=N)=O)CC2)nc(-c2ccnc3[nH]ccc23)n1 (stereo not given) + Cc1cnc(CNC(=O)c2c(=O)c3ccc(N4CCCN(C)CC4)nc3n3c2sc2ccccc23)cn1	439559-082-T-J2-PDC spheroids viability	False
CC(=O)O[C@H]1C(=O)[C@@]2(C)[C@H]([C@H](OC(=O)c3ccccc3)[C@]3(O)C[C@H](OC(=O)[C@H](O)[C@@H](NC(=O)c4ccccc4)c4ccccc4)C(C)=C1C3(C)C)[C@]1(OC(C)=O)CO[C@@H]1C[C@@H]2O + Cc1[nH]c2ccc(F)cc2c1-c1nc2c3cccnc3c3ncccc3c2[nH]1	439559-082-T-J2-PDC spheroids viability	True
Cc1[nH]c2ccccc2c1CCNCc1ccc(/C=C/C(=O)NO)cc1 + Cc1[nH]c2ccc(F)cc2c1-c1nc2c3cccnc3c3ncccc3c2[nH]1	439559-082-T-J2-PDC spheroids viability	False
C=CCn1c(=O)c2cnc(Nc3ccc(N4CCN(C)CC4)cc3)nc2n1-c1cccc(C(C)(C)O)n1 + Cc1cnc(CNC(=O)c2c(=O)c3ccc(N4CCCN(C)CC4)nc3n3c2sc2ccccc23)cn1	439559-082-T-J2-PDC spheroids viability	False
Nc1ccn(C2OC(CO)C(O)C2(F)F)c(=O)n1 (stereo not given) + CN(C)c1ccc(Nc2c3ccc(NC(=O)CCN4CCCC4)cc3nc3cc(NC(=O)CCN4CCCC4)ccc23)cc1	439559-082-T-J2-PDC spheroids viability	True

* * *

tested on: 439559-082-T-J2-PDC spheroids viability; assay: Anticancer human tumor 439559-082-T-J2-PDC cell line growth inhibition [GQUAD]; details: second compound 10 µM; first compound 10 µM; hits give low values;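 also: spheroids exposed to the agents for 7 days before readout; percent of luminescence signal in DMSO vehicle wells taken as 100% viability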
Overview of recorded viability, T/C for various compounds
reported.metric: viability, T/C (%)

compound	test.result
CC(C)n1c(=O)n(C)c2cnc3cc(F)c(-c4ccc(OCCCN5CCCCC5)nc4)cc3c21 + Cc1[nH]c2ccc(F)cc2c1-c1nc2c3cccnc3c3ncccc3c2[nH]1	84.8
CC1COCCN1c1cc(C2(S(C)(=N)=O)CC2)nc(-c2ccnc3[nH]ccc23)n1 (stereo unspecified) + CN(C)c1ccc(Nc2c3ccc(NC(=O)CCN4CCCC4)cc3nc3cc(NC(=O)CCN4CCCC4)ccc23)cc1	63.7
CC1COCCN1c1cc(C2(O)CC3CCC(C2)O3)c2cnn(-c3ccn[nH]3)c2n1 (stereo unspecified) + Cc1[nH]c2ccc(F)cc2c1-c1nc2c3cccnc3c3ncccc3c2[nH]1	27.1
CC1COCCN1c1cc(C2(S(C)(=N)=O)CC2)nc(-c2ccnc3[nH]ccc23)n1 (stereo unspecified) + Cc1cnc(CNC(=O)c2c(=O)c3ccc(N4CCCN(C)CC4)nc3n3c2sc2ccccc23)cn1	49.2
O=C(NO)c1cnc(N2CCN(S(=O)(=O)c3ccc4ccccc4c3)CC2)nc1 + Cc1[nH]c2ccc(F)cc2c1-c1nc2c3cccnc3c3ncccc3c2[nH]1	22.4
CC1COCCN1c1cc(-c2ccnn2C)c2ccnc(-c3ccn[nH]3)c2n1 (stereo unspecified) + Cc1cnc(CNC(=O)c2c(=O)c3ccc(N4CCCN(C)CC4)nc3n3c2sc2ccccc23)cn1	20.3
O=C(NO)c1cnc(N2CCN(S(=O)(=O)c3ccc4ccccc4c3)CC2)nc1 + Cc1cnc(CNC(=O)c2c(=O)c3ccc(N4CCCN(C)CC4)nc3n3c2sc2ccccc23)cn1	0.18
COc1ccc([C@@H](O)c2cc(-c3ncnc4cc(N5CCOCC5)ccc34)c(F)cc2Cl)nn1 + Cc1cnc(CNC(=O)c2c(=O)c3ccc(N4CCCN(C)CC4)nc3n3c2sc2ccccc23)cn1	41
O=c1[nH]cc(F)c(=O)[nH]1 + Cc1cnc(CNC(=O)c2c(=O)c3ccc(N4CCCN(C)CC4)nc3n3c2sc2ccccc23)cn1	58.3
COc1ccc([C@@H](O)c2cc(-c3ncnc4cc(N5CCOCC5)ccc34)c(F)cc2Cl)nn1 + Cc1[nH]c2ccc(F)cc2c1-c1nc2c3cccnc3c3ncccc3c2[nH]1	80.8
COc1cc(C2c3cc4c(cc3C(OC3OC5COC(C)OC5C(O)C3O)C3COC(=O)C23)OCO4)cc(OC)c1O (stereo unspecified) + Cc1[nH]c2ccc(F)cc2c1-c1nc2c3cccnc3c3ncccc3c2[nH]1	57.2

* * *

tested on: 439559-082-T-J2-PDC spheroids viability; experiment: Anticancer human tumor 439559-082-T-J2-PDC cell line growth inhibition [GQUAD]; details: second compound 3.16 µM; first compound 0.1 µM; hits give low values;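 also: spheroids exposed to the agents for 7 days before readout; percent of luminescence signal in DMSO vehicle wells taken as 100% viability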
reported.metric: viability, T/C (%)

compound	test.result
CC(=O)O[C@H]1C(=O)[C@@]2(C)[C@H]([C@H](OC(=O)c3ccccc3)[C@]3(O)C[C@H](OC(=O)[C@H](O)[C@@H](NC(=O)c4ccccc4)c4ccccc4)C(C)=C1C3(C)C)[C@]1(OC(C)=O)CO[C@@H]1C[C@@H]2O + CN(C)c1ccc(Nc2c3ccc(NC(=O)CCN4CCCC4)cc3nc3cc(NC(=O)CCN4CCCC4)ccc23)cc1	84.6
CC1COCCN1c1cc(C2(S(C)(=N)=O)CC2)nc(-c2ccnc3[nH]ccc23)n1 (centres undefined) + CN(C)c1ccc(Nc2c3ccc(NC(=O)CCN4CCCC4)cc3nc3cc(NC(=O)CCN4CCCC4)ccc23)cc1	98.9
Nc1ccn(C2OC(CO)C(O)C2(F)F)c(=O)n1 (centres undefined) + CN(C)c1ccc(Nc2c3ccc(NC(=O)CCN4CCCC4)cc3nc3cc(NC(=O)CCN4CCCC4)ccc23)cc1	67.9
O=C(NO)c1cnc(N2CCN(S(=O)(=O)c3ccc4ccccc4c3)CC2)nc1 + CN(C)c1ccc(Nc2c3ccc(NC(=O)CCN4CCCC4)cc3nc3cc(NC(=O)CCN4CCCC4)ccc23)cc1	85.2
COc1ncnc(C2CC2)c1-c1ncc2cnn(Cc3ccc(-c4nc(C(F)(F)F)cn4C(C)C)cc3)c2n1 + Cc1[nH]c2ccc(F)cc2c1-c1nc2c3cccnc3c3ncccc3c2[nH]1	95.3
CC(=O)O[C@H]1C(=O)[C@@]2(C)[C@H]([C@H](OC(=O)c3ccccc3)[C@]3(O)C[C@H](OC(=O)[C@H](O)[C@@H](NC(=O)c4ccccc4)c4ccccc4)C(C)=C1C3(C)C)[C@]1(OC(C)=O)CO[C@@H]1C[C@@H]2O + Cc1cnc(CNC(=O)c2c(=O)c3ccc(N4CCCN(C)CC4)nc3n3c2sc2ccccc23)cn1	73.1
O=C(NO)c1cnc(N2CCN(S(=O)(=O)c3ccc4ccccc4c3)CC2)nc1 + Cc1cnc(CNC(=O)c2c(=O)c3ccc(N4CCCN(C)CC4)nc3n3c2sc2ccccc23)cn1	64.5
CC(C)(O)C1CCC(Nc2ccc3ncc(-c4cccc(C(F)(F)F)c4)n3n2)CC1 (centres undefined) + CN(C)c1ccc(Nc2c3ccc(NC(=O)CCN4CCCC4)cc3nc3cc(NC(=O)CCN4CCCC4)ccc23)cc1	101
C=CCn1c(=O)c2cnc(Nc3ccc(N4CCN(C)CC4)cc3)nc2n1-c1cccc(C(C)(C)O)n1 + CN(C)c1ccc(Nc2c3ccc(NC(=O)CCN4CCCC4)cc3nc3cc(NC(=O)CCN4CCCC4)ccc23)cc1	97.8

* * *

system: 439559-082-T-J2-PDC spheroids viability; assay: Anticancer human tumor 439559-082-T-J2-PDC cell line growth inhibition [GQUAD]; conditions: second compound 0.316 µM; first compound 0.316 µM; hits give low values;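 also: spheroids exposed to the agents for 7 days before readout; percent of luminescence signal in DMSO vehicle wells taken as 100% viability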
Overview of recorded viability, T/C for various compounds
reported.metric: viability, T/C (%)

compound	reported.metric	test.result
CC[C@@]1(O)C(=O)OCc2c1cc1n(c2=O)Cc2cc3c(CN(C)C)c(O)ccc3nc2-1 + Cc1cnc(CNC(=O)c2c(=O)c3ccc(N4CCCN(C)CC4)nc3n3c2sc2ccccc23)cn1	viability, T/C	69
CCc1c2c(nc3ccc(O)cc13)-c1cc3c(c(=O)n1C2)COC(=O)[C@]3(O)CC + CN(C)c1ccc(Nc2c3ccc(NC(=O)CCN4CCCC4)cc3nc3cc(NC(=O)CCN4CCCC4)ccc23)cc1	viability, T/C	40.3
O=C(c1cc(Cc2n[nH]c(=O)c3ccccc23)ccc1F)N1CCN(C(=O)C2CC2)CC1 + Cc1[nH]c2ccc(F)cc2c1-c1nc2c3cccnc3c3ncccc3c2[nH]1	viability, T/C	105
C#Cc1c(F)ccc2cc(O)cc(-c3ncc4c(N5CC6CCC(C5)N6)nc(OCC56CCCN5CC(F)C6)nc4c3F)c12 (stereo unspecified) + CN(C)c1ccc(Nc2c3ccc(NC(=O)CCN4CCCC4)cc3nc3cc(NC(=O)CCN4CCCC4)ccc23)cc1	viability, T/C	62.2
C#Cc1c(F)ccc2cc(O)cc(-c3ncc4c(N5CC6CCC(C5)N6)nc(OCC56CCCN5CC(F)C6)nc4c3F)c12 (stereo unspecified) + Cc1cnc(CNC(=O)c2c(=O)c3ccc(N4CCCN(C)CC4)nc3n3c2sc2ccccc23)cn1	viability, T/C	68.9
Cc1[nH]c2ccccc2c1CCNCc1ccc(/C=C/C(=O)NO)cc1 + CN(C)c1ccc(Nc2c3ccc(NC(=O)CCN4CCCC4)cc3nc3cc(NC(=O)CCN4CCCC4)ccc23)cc1	viability, T/C	62.3
Cc1cccc(N(C)C(=O)C2C(O)CCN2c2nc(C)cc(C(F)(F)F)c2C#N)c1 (stereo unspecified) + CN(C)c1ccc(Nc2c3ccc(NC(=O)CCN4CCCC4)cc3nc3cc(NC(=O)CCN4CCCC4)ccc23)cc1	viability, T/C	101
C=CC(=O)N1CCN(c2nc(=O)n(-c3c(C)ccnc3C(C)C)c3nc(-c4c(O)cccc4F)c(F)cc23)C(C)C1 (stereo unspecified) + Cc1[nH]c2ccc(F)cc2c1-c1nc2c3cccnc3c3ncccc3c2[nH]1	viability, T/C	102
Nc1ccn(C2OC(CO)C(O)C2(F)F)c(=O)n1 (stereo unspecified) + Cc1cnc(CNC(=O)c2c(=O)c3ccc(N4CCCN(C)CC4)nc3n3c2sc2ccccc23)cn1	viability, T/C	42.9
O=C(c1cc(Cc2n[nH]c(=O)c3ccccc23)ccc1F)N1CCN(C(=O)C2CC2)CC1 + Cc1cnc(CNC(=O)c2c(=O)c3ccc(N4CCCN(C)CC4)nc3n3c2sc2ccccc23)cn1	viability, T/C	84.1
CCc1c2c(nc3ccc(O)cc13)-c1cc3c(c(=O)n1C2)COC(=O)[C@]3(O)CC + Cc1[nH]c2ccc(F)cc2c1-c1nc2c3cccnc3c3ncccc3c2[nH]1	viability, T/C	51.1
